Tested on: Mus musculus
Experiment: Analgesic activity in Swiss albino mouse assessed as protection against acetic acid-induced wriths at 50 mg/kg, po administered 30 mins prior acetic acid challenge measured for 10 mins
Type: functional
assay.endpoint: inhibition in vivo at 50 mg/kg (%)
Give just the number in %; leave the unit off.

# example entries with known answers
> print(dat)
                               molecule                  assay.endpoint  value.observed
1     Cc1ccc(-n2nc3cc(C)oc(=O)c3c2C)cc1  inhibition in vivo at 50 mg/kg            69.4
2  Cc1cc2nn(-c3ccc(Br)cc3)c(C)c2c(=O)o1  inhibition in vivo at 50 mg/kg            44.9
3      Cc1cc2nn(-c3ccccc3)c(C)c2c(=O)o1  inhibition in vivo at 50 mg/kg            50.2

Consider CC(=O)c1c(NNc2cc(C)c3ccccc3n2)cc(C)oc1=O . Its measured inhibition in vivo at 50 mg/kg is 75

Consider CC(=O)c1c(NNc2ccc(C)cc2)cc(C)oc1=O . Its measured inhibition in vivo at 50 mg/kg is 70.2

* * *

Test system: Mus musculus
Assay: Analgesic activity in Swiss albino mouse assessed as protection against acetic acid-induced wriths at 50 mg/kg, po administered 30 mins prior acetic acid challenge measured for 10 mins
Assay type: functional
y means recorded inhibition in vivo at 50 mg/kg is 60% or above; n means it is below 60%.

Observe how each entry below is paired with its result.
> print(dat)
                                molecule  label.value
1        CC(=O)c1c(NNc2ccccc2)cc(C)oc1=O            n
2    CC(=O)c1c(NNc2ccc(Cl)cc2)cc(C)oc1=O            y
3  CC(=O)c1c(NNc2nc(C)cc(C)n2)cc(C)oc1=O            y

Prompt: Entry Cc1cc2nn(-c3nc(-c4ccccc4)cs3)c(C)c2c(=O)o1 : is its inhibition in vivo at 50 mg/kg no less than 60%?
Completion: y

Prompt: Entry CC(=O)c1c(NNc2nc(-c3ccccc3)cs2)cc(C)oc1=O : is its inhibition in vivo at 50 mg/kg no less than 60%?
Completion: n

Prompt: Entry COc1ccc(-n2nc3cc(C)oc(=O)c3c2C)cc1 : is its inhibition in vivo at 50 mg/kg no less than 60%?
Completion: y

* * *

Tested on: Mus musculus
Test: Analgesic activity in Swiss albino mouse assessed as protection against acetic acid-induced wriths at 50 mg/kg, po administered 30 mins prior acetic acid challenge measured for 10 mins
Assay type: functional
assay.endpoint: inhibition in vivo at 50 mg/kg (%)
Give just the number in %; leave the unit off.

# example entries with known answers
> print(dat)
                                   compound  target.of.assay                  assay.endpoint  value.observed
1       COc1ccc(NNc2cc(C)oc(=O)c2C(C)=O)cc1     Mus musculus  inhibition in vivo at 50 mg/kg            59.2
2  O=C(O)Cc1ccccc1Nc1c(Cl)cccc1Cl [DICLOFENAC SODIUM]     Mus musculus  inhibition in vivo at 50 mg/kg            77.5
3      Cc1cc2nn(-c3ccc(Cl)cc3)c(C)c2c(=O)o1     Mus musculus  inhibition in vivo at 50 mg/kg            65.3
4       CC(=O)c1c(NNc2ccc(Br)cc2)cc(C)oc1=O     Mus musculus  inhibition in vivo at 50 mg/kg            53.1
5  CC(=O)c1c(NNc2ccc([N+](=O)[O-])cc2)cc(C)oc1=O     Mus musculus  inhibition in vivo at 50 mg/kg            47.3

Here's the next entry for you.
Consider CC(=O)c1c(NNc2nc3ccccc3s2)cc(C)oc1=O . Its measured inhibition in vivo at 50 mg/kg is 65.3
